- System: human leukocytes (buffy coat)
- assay-comment: Inhibition of A23187-stimulated histamine release from leukocytes
- Format: cell-based
- experimental-parameters: Homo sapiens, Leukocyte, 20 min; A23187 5 μM, 20 min/37° C.; read-out: Inhibition of inflammatory mediator (histamine) release; IC50
pIC50: −log10 of the molar value.
In this section, each of the molecules is paired with its reported pIC50.
measurement-kind: pIC50

{"columns": ["molecule", "study-system", "measurement-kind", "measured-result"],
 "data": [
  ["O=C1Cc2ccccc2C(=C2CCNCC2)c2ccsc21 (racemic) [Norketotifen]", "human leukocytes (buffy coat)", "pIC50", 5.04],
  ["CN1CCC(=C2c3ccccc3CC(=O)c3sccc32)CC1 [Ketotifen, reference compound]", "human leukocytes (buffy coat)", "pIC50", 4.04]
]}

====

- Tested on: mice
- assay-comment: Sedative effects in mice, physostigmine lethality test
- experimental-parameters: mice, oral dose 150 mg/kg
Sedated animals by entry:
measurement-kind: Sedated animals

{"columns": ["compound", "study-system", "measured-result"],
 "data": [
  ["Clc1ccc2c(c1)CCc1cccnc1C2=C1CCNCC1", "mice", "0/10"],
  ["CCOC(=O)N1CCC(=C2c3ccc(Cl)cc3CCc3cccnc32)CC1", "mice", "1/10"],
  ["CC(C)(C)c1ccc(C(O)CCCN2CCC(C(O)(c3ccccc3)c3ccccc3)CC2)cc1 (stereo not shown)", "mice", "0/10"],
  ["O=C1Cc2ccccc2C(=C2CCNCC2)c2ccsc21 (racemic)", "mice", "3/10"]
]}

====

- System: mice
- assay-comment: Sedative effects in mice, physostigmine lethality test
- experimental-parameters: mice, oral dose 100 mg/kg
Sedated animals values, listed per item

{"columns": ["compound", "study-system", "Sedated animals"],
 "data": [
  ["COc1ccc(CN(CCN(C)C)c2ccccn2)cc1 [PYRILAMINE]", "mice", "8/10"],
  ["O=C1Cc2ccccc2C(=C2CCNCC2)c2ccsc21 (racemic) [Norketotifen]", "mice", "3/10"],
  ["CN1CCC(=C2c3ccccc3CC(=O)c3sccc32)CC1 [Ketotifen, reference compound]", "mice", "10/10"],
  ["CN(C)CCOC(c1ccccc1)c1ccccc1 [DIPHENHYDRAMINE]", "mice", "8/10"],
  ["OCCOCCN1CCN(C(c2ccccc2)c2ccc(Cl)cc2)CC1 (centres unmarked) [HYDROXYZINE]", "mice", "9/10"]
]}

====

- study-system: histamine H1-receptors (Homo sapiens, UniProt P35367)
- Sequence (P35367 whole entry): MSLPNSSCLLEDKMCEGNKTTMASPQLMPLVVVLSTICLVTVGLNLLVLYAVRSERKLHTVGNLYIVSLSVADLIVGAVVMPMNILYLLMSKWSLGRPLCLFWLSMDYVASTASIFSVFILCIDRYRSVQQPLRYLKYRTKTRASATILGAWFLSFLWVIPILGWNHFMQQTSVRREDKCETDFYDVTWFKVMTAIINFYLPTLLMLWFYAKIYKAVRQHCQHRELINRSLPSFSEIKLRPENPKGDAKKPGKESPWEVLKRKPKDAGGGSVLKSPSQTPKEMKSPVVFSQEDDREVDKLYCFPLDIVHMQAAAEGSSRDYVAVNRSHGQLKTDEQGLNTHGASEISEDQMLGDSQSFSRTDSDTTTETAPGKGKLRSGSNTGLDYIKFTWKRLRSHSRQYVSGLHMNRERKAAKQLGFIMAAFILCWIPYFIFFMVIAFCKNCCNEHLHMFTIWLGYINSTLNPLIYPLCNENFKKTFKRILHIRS
- assay-comment: H1 receptor binding, [3H]pyrilamine ligand
- experimental-parameters: human recombinant receptors, read-out: H-1/IC50
measurement-kind: IC50 (nM)

{"columns": ["molecule", "study-system", "measured-result"],
 "data": [
  ["O=C1Cc2ccccc2C(=C2CCNCC2)c2ccsc21 (racemic)", "histamine H1-receptors (Homo sapiens, UniProt P35367)", 11]
]}
